Tested on: grooming behavior in mice
Assay: Inhibition of grooming behavior in mice
Format: in vivo
Details: 0.625 mg/kg P.O.
Reported values of % Inhibition (grooming responses) for individual entries
endpoint label: % Inhibition (grooming responses)

> print(dat)
                                   compound                     endpoint.label  test.result
1  COc1ccccc1N1CCN(CCCCn2c(=O)c3c(ncn3C)n(C)c2=O)CC1 [drawing 18]  % Inhibition (grooming responses)          23%
2  Cn1cnc2c1c(=O)n(CCCCN1CCN(c3cccc(C(F)(F)F)c3)CC1)c(=O)n2C [drawing 17]  % Inhibition (grooming responses)          49%
3  CN(C)CCCN1c2ccccc2Sc2ccc(Cl)cc21 [chlorpromazine, reference compound]  % Inhibition (grooming responses)          30%
4  CN1C(=O)CN=C(c2ccccc2)c2cc(Cl)ccc21 [diazepam, reference compound]  % Inhibition (grooming responses)          53%

Reference source for all entries: patent US4493837A
